Target: T1, LZTR1 R810W-FLAG (human, UniProt Q8N653 1-840)
T1 construct: Stably expressed in U87 cells by lentivirus; also called LZTR1-FLAG-R810W; LZTR1 RW; not shown: FLAG tag
T1 sequence (looked up): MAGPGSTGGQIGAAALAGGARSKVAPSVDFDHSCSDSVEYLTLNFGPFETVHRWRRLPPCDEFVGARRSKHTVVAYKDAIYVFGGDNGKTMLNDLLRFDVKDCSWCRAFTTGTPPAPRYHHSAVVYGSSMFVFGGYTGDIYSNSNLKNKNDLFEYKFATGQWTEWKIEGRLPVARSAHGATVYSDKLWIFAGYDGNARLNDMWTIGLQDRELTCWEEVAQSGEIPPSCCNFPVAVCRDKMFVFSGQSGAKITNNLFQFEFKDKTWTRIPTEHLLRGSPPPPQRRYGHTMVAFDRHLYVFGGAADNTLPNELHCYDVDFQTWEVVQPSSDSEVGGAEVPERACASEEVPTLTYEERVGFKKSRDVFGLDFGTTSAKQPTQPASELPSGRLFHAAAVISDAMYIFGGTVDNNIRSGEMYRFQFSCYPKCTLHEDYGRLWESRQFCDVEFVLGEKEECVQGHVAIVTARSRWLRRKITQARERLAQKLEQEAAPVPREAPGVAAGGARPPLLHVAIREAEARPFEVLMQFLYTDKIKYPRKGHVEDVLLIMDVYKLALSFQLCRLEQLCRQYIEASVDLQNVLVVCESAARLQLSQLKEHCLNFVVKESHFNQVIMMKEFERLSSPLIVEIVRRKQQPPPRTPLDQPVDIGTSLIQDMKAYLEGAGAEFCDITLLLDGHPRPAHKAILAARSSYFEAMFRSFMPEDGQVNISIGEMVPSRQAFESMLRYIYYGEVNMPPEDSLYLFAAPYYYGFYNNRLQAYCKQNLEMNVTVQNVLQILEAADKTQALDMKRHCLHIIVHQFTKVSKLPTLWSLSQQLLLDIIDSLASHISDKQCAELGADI
Assay: IP/MS, LZTR1 R810W-FLAG, U87
value type: binding result

SMS (other, human, UniProt P52788 2-366, looked up) AAARHSTLDFMLGAKADGETILKGLQSIFQEQGMAESVHTWQDHGYLATYTNKNGSFANLRIYPHGLVLLDLQSYDGDAQGKEEIDSILNKVEERMKELSQDSTGRVKRLPPIVRGGAIDRYWPTADGRLVEYDIDEVVYDEDSPYQNIKILHSKQFGNILILSGDVNLAESDLAYTRAIMGSGKEDYTGKDVLILGGGDGGILCEIVKLKPKMVTMVEIDQMVIDGCKKYMRKTCGDVLDNLKGDCYQVLIEDCIPVLKRYAKEGREFDYVINDLTAVPISTSPEEDSTWEFLRLILDLSMKVLKQDGKYFTQGNCVNLTEALSLYEEQLGRLYCPVEFSKEIVCVPSYLELWVFYTVWKKAKP
binds
